Field: cell viability. Provide a value for each of the compounds that follow.
- Tested on: HL-60
- protocol-text: cell viability (% survival relative to DMSO control, bortezomib = 0%); higher = less cytotoxic
- run-parameters: 1000 nM; 72 h
Counter-ions that a name gives are not always drawn.
Answers are plain numbers, in %.

Illustrative cases are given below, each with its answer.
compound	endpoint-value
Oc1ncc(F)c(O)n1 [5-fluorouracil]	61.2
CNC(=C[N+](=O)[O-])NCCSCc1ccc(CN(C)C)o1 [Ranitidine]	95.5
OCCN1C[C@H](O)[C@@H](O)[C@H](O)[C@H]1CO [Miglitol]	105
CC(C)(Cc1ccccc1)NCC(O)c1ccc(O)c(NS(C)(=O)=O)c1 (centres undefined) [Zinterol hydrochloride]	87.7

For each of the items listed, what is its cell viability?
1. O=C(Cc1cccc(OC(F)(F)F)c1)Nc1ccc(CCCCc2nnc(NC(=O)Cc3ccccn3)s2)nn1 [CB-839]
2. CC(=O)N1CCN(c2ccc(OC[C@@H]3CO[C@@](Cn4ccnc4)(c4ccc(Cl)cc4Cl)O3)cc2)CC1 (racemic) [Ketoconazole]

1. 40.6
2. 112

Fill in cell viability for each of the 3 compounds listed.
1. NCc1ccc(-c2cccnc2)s1 [(5-Pyrid-3-YLTHIEN-2-YL)METHYLAMINE]
2. Cl.NC1=CCCN1Cc1nc(O)nc(O)c1Cl [Tipiracil]
3. CCCCCCCCCCCCCCOc1ccc(C(=O)O)o1 [TOFA]

[115, 130, 109]

----------
Can you tell me IC50 (cell viability) for the items I'm about to list?
- Test system: MOLM-13
- run-parameters: 72 h

Answered examples (3):
molecule	IC50 (cell viability)
N#Cc1ccc(C2CCCc3cncn32)cc1 (centres undefined)	> 10 µM
O=c1[nH]c(=O)n([C@H]2C[C@H](O)[C@@H](CO)O2)cc1I	4.76 µM
CCCCC/C=C\C/C=C\C/C=C\C/C=C\CCCC(=O)C(F)(F)F	> 10 µM

Proceeding to the next molecule to report its IC50 (cell viability).
Quick note, IC50 (cell viability) for C#CCN[C@@H]1CCc2ccccc21 landed at > 10 µM

----------
- Tested on: myeloid leukemia patient primary cells Pat.1
- protocol-text: cell viability (% survival relative to DMSO control); higher = less cytotoxic
- run-parameters: 1 nM; 72 h
Where a name gives a salt, the structure may show the parent alone.
endpoint: cell viability (%)
One number for each entry, in %.

Study these solved cases before continuing.
compound	target-or-test-system	cell viability, %
CC(C)(Cc1ccccc1)NCC(O)c1ccc(O)c(NS(C)(=O)=O)c1 (stereo unspecified) [Zinterol hydrochloride]	myeloid leukemia patient primary cells Pat.1	89.4
O=C(Oc1cccc(F)c1OC(=O)c1cccc(O)c1)c1cccc(O)c1 [WZB117]	myeloid leukemia patient primary cells Pat.1	98
O=C(/C=C/c1cccnc1)NCCCCC1CCN(C(=O)c2ccccc2)CC1 [Daporinad]	myeloid leukemia patient primary cells Pat.1	98.2
c1ccc2c(c1)SCc1c-2[nH]c2ccccc12	myeloid leukemia patient primary cells Pat.1	95.2

Okay, now this compound:
Entry Cc1nnc(-c2ccc(N3CCC(Oc4ccccc4C(F)(F)F)CC3)nn2)s1 [MF-438] ; assay system myeloid leukemia patient primary cells Pat.1; cell viability recorded at 78.8

----------
- Test system: myeloid leukemia patient primary cells Pat.14
- protocol-text: cell viability (% survival relative to DMSO control); higher = less cytotoxic
- run-parameters: 1 nM; 72 h
Threshold 80%: cell viability strictly smaller gives Satisfied, otherwise Not satisfied.

Could you please tell me whether cell viability recorded for Cc1nnc(-c2ccc(N3CCC(Oc4ccccc4C(F)(F)F)CC3)nn2)s1 is less than 80%?
Not satisfied

In plain terms, does CCC(CC#N)OC(=O)N[C@@H](C)c1cccc(NC(=O)Nc2ccc(-c3cnco3)c(OC)c2)c1 (stereo in doubt) come in under 80% for cell viability?
Not satisfied

Regarding O=C(CCl)N(CCCNC(=O)C(F)(F)F)c1ccc([N+](=O)[O-])cc1 , kindly confirm whether its cell viability is beneath 80%.
Not satisfied

Lab note: confirm whether the reported cell viability for this compound is below 80%, equality not counting. compound: NS(=O)(=O)c1ccc(S(=O)(=O)Nc2cccc3c(Cl)c[nH]c23)cc1
Satisfied

Consider the compound Nc1ccn([C@@H]2O[C@H](CO)[C@@H](O)C2(F)F)c(=O)n1 . Is its cell viability strictly less than 80%?
Satisfied

cell viability strictly < 80% for this compound? O=C(Cc1cccc(OC(F)(F)F)c1)Nc1ccc(CCCCc2nnc(NC(=O)Cc3ccccn3)s2)nn1
Satisfied

For Clc1cc(Cl)c(OCC#CI)cc1Cl , is the recorded cell viability below the cut-off of 80%?
Not satisfied

----------
- Tested on: HL-60
- protocol-text: cell viability (% survival relative to DMSO control, bortezomib = 0%); higher = less cytotoxic
- run-parameters: 1 nM; 72 h
endpoint: cell viability (%)
Numbers only, in %.

Please review the entries below; each comes with its answer.
compound	endpoint-value
NCc1ccc(S(N)(=O)=O)cc1 [4-Homosulfanilamide]	88.1
Nc1nc(O)c2c(CCc3ccc(C(=O)N[C@@H](CCC(=O)O)C(=O)O)cc3)c[nH]c2n1 [Pemetrexed]	110
CC(C)(CS(=O)(=O)[O-])NC(=O)CC[N+](C)(C)CCO	116
CNC(=C[N+](=O)[O-])NCCSCc1ccc(CN(C)C)o1 [Ranitidine]	98.1
COc1cc(/C=C/c2ccc(OC)cc2OC)cc(OC)c1 [2,3',4,5'-Tetramethoxystilbene]	109

Record cell viability for all entries; do not skip any.
1. O=C(Cc1cccc(OC(F)(F)F)c1)Nc1ccc(CCCCc2nnc(NC(=O)Cc3ccccn3)s2)nn1 [CB-839]
2. CN(C)CCNC(=O)c1cccn2c(=O)c3cc4ccccc4cc3nc12 [Bmh-21]

[73.4, 102]

----------
- Test system: HL-60
- run-parameters: 72 h
Mark Criterion met only for IC50 (cell viability) values smaller than 1 µM; exact matches and larger values are Criterion not met.

compound	class-name
Cl.NC1=CCCN1Cc1nc(O)nc(O)c1Cl	Criterion not met
CC(=O)N[C@@H](CS)C(=O)O	Criterion not met
O=C(/C=C/c1cccnc1)NCCCCC1CCN(C(=O)c2ccccc2)CC1	Criterion met
Nc1ccn([C@@H]2O[C@H](CO)[C@@H](O)C2(F)F)c(=O)n1	Criterion met
OC[C@H]1N[C@@H](c2c[nH]c3c(O)ncnc23)[C@H](O)[C@@H]1O	Criterion not met
O=C(c1c2ccccc2cc2ccccc12)N1CCC(N2CCC[C@@H](C(=O)N3CCOCC3)C2)CC1	Criterion not met

Find out if reported IC50 (cell viability) for O=c1oc2c(cc1O)oc(=O)c1cc(O)c(O)c(O)c12 is less than 1 µM
Criterion not met

Bench note: check whether Cc1cc(O)c2c(c1)C(=O)c1cc(O)cc(O)c1C2=O shows IC50 (cell viability) below 1 µM
Criterion not met

Find out if reported IC50 (cell viability) for N#Cc1ccc(C2CCCc3cncn32)cc1 (stereo not given) is less than 1 µM
Criterion not met

Find out if reported IC50 (cell viability) for C=C1NC(=O)c2cc(CN(C)c3ccc(C(=O)N[C@@H](CCC(=O)O)C(=O)O)s3)ccc2N1 is less than 1 µM
Criterion met

For this compound, is IC50 (cell viability) lower than 1 µM? Nc1nc(O)c2c(CCc3ccc(C(=O)N[C@@H](CCC(=O)O)C(=O)O)cc3)c[nH]c2n1
Criterion met

Does Oc1ncc(F)c(O)n1 have IC50 (cell viability) strictly under 1 µM?
Criterion not met

Just wondering, is IC50 (cell viability) of CC(C)(CS(=O)(=O)[O-])NC(=O)CC[N+](C)(C)CCO below 1 µM?
Criterion not met

Given Fc1ccc(CNc2ncnc3ccc(F)cc23)cc1 , is recorded IC50 (cell viability) strictly lower than 1 µM?
Criterion not met

Lab note: IC50 (cell viability) threshold 1 µM. Does this compound come in strictly under it? NS(=O)(=O)c1ccc(NC(=O)Cc2ccccc2)cc1 [4-(2-Phenylacetamido)Benzenesulfonamide]
Criterion not met

----------
- Test system: HL-60
- protocol-text: cell viability (% survival relative to DMSO control); higher = less cytotoxic
- run-parameters: 1 µM; 72 h; co-treatment: AZD3965 100 nM
endpoint: cell viability (%)
Numbers only, in %.

Completed entries (count: 3):
molecule	cell viability (%)
O=C(Oc1ccc([N+](=O)[O-])cc1)N1CCC(C(O)(c2ccc3c(c2)OCO3)c2ccc3c(c2)OCO3)CC1	98.7
CC(=O)N[C@@H](CS)C(=O)O	102
OC[C@H]1OC(O)C[C@@H](O)[C@@H]1O (some centres undefined)	103

Shift focus to the following entry.
Short answer for CC(C)(F)C[C@H](N[C@@H](c1ccc(-c2ccc(S(C)(=O)=O)cc2)cc1)C(F)(F)F)C(=O)NC1(C#N)CC1 : cell viability was 96.3

----------
- Tested on: myeloid leukemia patient primary cells Pat.13
- protocol-text: cell viability (% survival relative to DMSO control); higher = less cytotoxic
- run-parameters: 100 nM; 72 h
endpoint: cell viability (%)
One number for each entry, in %.

compound	endpoint-value
Clc1cc(Cl)c(OCC#CI)cc1Cl	91
Oc1ncc(F)c(O)n1	90
O=C(CCl)N(CCCNC(=O)C(F)(F)F)c1ccc([N+](=O)[O-])cc1	71.6

I need cell viability for every entry listed below, if you could help.
1. CCn1c(=O)/c(=C2\Sc3ccccc3N2C)s/c1=C\c1cccc[n+]1CC.[Cl-]
2. CCC(CC#N)OC(=O)N[C@@H](C)c1cccc(NC(=O)Nc2ccc(-c3cnco3)c(OC)c2)c1 (stereo in doubt)

92.6
90.6
